system.tested: T1, recombinant human CD3 epsilon/delta heterodimer (human, UniProt P07766 23-126; P04234 22-105)
T1 construct: Recombinant heterodimer used as analyte in Octet; also called hCD3 E/D; human CD3E/D
protocol.summary: BLI (Octet), mAb 5 ug/mL on FAB2G sensor, hCD3 E/D 200-50 nM
quantity.measured: Kd (nM)
Give a bare numeral; the unit nM is implied.

Entry ABL-CD3-70 (antibody, V domains shown, mAb purified from hybridoma; chimeric AlivaMab IgG (human VH, CH1 and upper hinge; mouse middle hinge, CH2, CH3; human light chain)) VH: EVQLVESGGGLVKPGGSLRLSCAASGFTFSTYIMNWVRQAPGKGLEWVSSITSSSSYIYYADSVKGRFTISRDNAKNSLYLQMNSLRAEDTAVYYCAREKWELLFFDYWGQGTLVTVSS VL: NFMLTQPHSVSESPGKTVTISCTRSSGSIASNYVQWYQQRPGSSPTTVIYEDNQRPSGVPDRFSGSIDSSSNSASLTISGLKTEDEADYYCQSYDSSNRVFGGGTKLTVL has what Kd?
47.1
